target: GST-NOS1 PDZ domain fusion protein (human neuronal nitric oxide synthase; PDZ domain 1 of 1) (human, UniProt P08515 1-218 = GST); assay: A/G assays
Sequence (P08515 1-218, tags or fused parts left off): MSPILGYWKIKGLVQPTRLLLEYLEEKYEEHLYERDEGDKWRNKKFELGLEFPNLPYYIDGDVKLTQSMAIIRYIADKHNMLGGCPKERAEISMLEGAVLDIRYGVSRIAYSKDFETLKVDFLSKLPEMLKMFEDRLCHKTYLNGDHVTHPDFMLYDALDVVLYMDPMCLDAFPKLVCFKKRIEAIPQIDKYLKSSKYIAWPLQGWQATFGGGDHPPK
Ends that are not written are not given here. * marks the point of attachment. Biotin = O=C1N[C@H]2[C@H](CS[C@H]2CCCCC(=O)*)N1

binder: Biotin-KKGTYLTDETHREVKFTSL [CD46 (form 1) C-terminal PL peptide AA10L, biotinylated]
binding result: no binding

binder: Biotin-SSSQSLESDGSYQKPSYIL [CD62E C-terminal PL peptide AA48L, biotinylated]
binding result: no binding

binder: Biotin-PYGTAMEKAQLKPPATSDA [CD49E (alpha-4) C-terminal PL peptide AA11L, biotinylated]
binding result: no binding

binder: Biotin-LERVSSTSPSTGEHELSAGF [CC CKR-1R C-terminal PL peptide AA41L, biotinylated]
binding result: no binding

binder: Biotin-ARKANMKGSYSLVEAQKSKV (also called CD106) [VCAM1 C-terminal PL peptide AA17L, biotinylated]
binding result: no binding

binder: Biotin-SVFSIPTLWSPWPPSSSSQL (also called CD3-eta) [CD3n C-terminal PL peptide AA4L, biotinylated]
binding result: no binding

binder: Biotin-LNSCSNRRVYKKMPSIESDV [NMDA C-terminal PL peptide AA34.2L, biotinylated]
binding result: no binding

binder: Biotin-QGDPALQDAGDSSRKEYFI (also called GC) [Glycophorin C C-terminal PL peptide AA37L, biotinylated]
binding result: no binding

binder: Biotin-GKGKSIGRAPEASLQDKEGA [CC CKR-2 C-terminal PL peptide AA42L, biotinylated]
binding result: no binding

binder: Biotin-TSGTGHNQTRALRASESGI [CD97 (CD55L) C-terminal PL peptide AA14L, biotinylated]
binding result: no binding

binder: Biotin-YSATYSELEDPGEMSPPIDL (also called Fc epsilon receptor beta I chain) [FceRIb C-terminal PL peptide AA25L, biotinylated]
binding result: no binding

binder: Biotin-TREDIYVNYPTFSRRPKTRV [DNAM-1 C-terminal PL peptide AA22L, biotinylated]
binding result: no binding

binder: Biotin-VTSPNKHLGLVTPHKTELV [CD83 C-terminal PL peptide AA47L, biotinylated]
binding result: no binding

binder: Biotin-PKQANGGAYQKPTKQEEFYA [CD138 (syndecan) C-terminal PL peptide AA18L, biotinylated]
binding result: no binding
